- condition-label: in 2-butanone, 318.15 K
quantity-name: solubility (mole fraction)

QUERY: Give its solubility (mole fraction) value. Item: O=c1[nH]c2ccccc2c(=O)o1
RESULT: 0.0129

---

- condition-label: in n-propanol, 313.15 K
quantity-name: solubility (mole fraction)
Just the number, please.

QUERY: Fill in: solubility (mole fraction) of O=c1[nH]c2ccccc2c(=O)o1 is ___
RESULT: 0.0025

---

- condition-label: in isopropanol, 323.15 K
quantity-name: solubility (mole fraction)
# answer = number (no unit)

QUERY: solubility (mole fraction) for O=c1[nH]c2ccccc2c(=O)o1 ?
RESULT: 0.0038

---

- condition-label: in isopropanol, 318.15 K
quantity-name: solubility (mole fraction)
Would you mind answering with just the numeric figure?

QUERY: # solubility (mole fraction) lookup, item O=c1[nH]c2ccccc2c(=O)o1
RESULT: 0.00316

---

- condition-label: in methyl acetate, 298.15 K
quantity-name: solubility (mole fraction)
Lab note: record just the number, no unit beside it.

QUERY: Quick one: solubility (mole fraction) for O=c1[nH]c2ccccc2c(=O)o1 ?
RESULT: 0.00517

---

- condition-label: in 2-butanone, 323.15 K
quantity-name: solubility (mole fraction)

QUERY: # query: solubility (mole fraction) of entry O=c1[nH]c2ccccc2c(=O)o1
RESULT: 0.014

---

- condition-label: in 2-butanone, 293.15 K
quantity-name: solubility (mole fraction)
Give your answer as a number; write no unit.

QUERY: Which measured solubility (mole fraction) value corresponds to O=c1[nH]c2ccccc2c(=O)o1 ?
RESULT: 0.00805

---

- condition-label: in ethanol, 313.15 K
quantity-name: solubility (mole fraction)
Kindly provide the number alone.

QUERY: Using the record for O=c1[nH]c2ccccc2c(=O)o1 , report its solubility (mole fraction).
RESULT: 0.00277

---

- condition-label: in isopropyl acetate, 308.15 K
quantity-name: solubility (mole fraction)
Give the value as a plain number.

QUERY: State the recorded solubility (mole fraction) for this entry: O=c1[nH]c2ccccc2c(=O)o1
RESULT: 0.00291

---

- condition-label: in n-propanol, 298.15 K
quantity-name: solubility (mole fraction)
// response body must contain only the number

QUERY: Recorded solubility (mole fraction) for O=c1[nH]c2ccccc2c(=O)o1 , please?
RESULT: 0.00152

---

- condition-label: in methanol, 288.15 K
quantity-name: solubility (mole fraction)
Reply with the value as a number alone.

QUERY: Endpoint output: solubility (mole fraction) of O=c1[nH]c2ccccc2c(=O)o1 . Value?
RESULT: 0.00149

---

- condition-label: in acetone, 303.15 K
quantity-name: solubility (mole fraction)
Enter a number only.

QUERY: What value of solubility (mole fraction) has been recorded for this entry: O=c1[nH]c2ccccc2c(=O)o1
RESULT: 0.0109

---

- condition-label: in 2-butanone, 288.15 K
quantity-name: solubility (mole fraction)
Returns: the value as a bare number; no unit string appended.

QUERY: GET /values?readout=solubility (mole fraction)&item= O=c1[nH]c2ccccc2c(=O)o1
RESULT: 0.00741

---

- condition-label: in 2-butanone, 308.15 K
quantity-name: solubility (mole fraction)
Enter the number alone.

QUERY: Tell me the measured solubility (mole fraction) of O=c1[nH]c2ccccc2c(=O)o1 , please.
RESULT: 0.0107

---

- condition-label: in 1,4-dioxane, 328.15 K
quantity-name: solubility (mole fraction)
Reply with the value as a number alone.

QUERY: Query (compound): O=c1[nH]c2ccccc2c(=O)o1 ; field requested: solubility (mole fraction)
RESULT: 0.0198

---

- condition-label: in isopropanol, 328.15 K
quantity-name: solubility (mole fraction)
Number only, please.

QUERY: // solubility (mole fraction) lookup, key: O=c1[nH]c2ccccc2c(=O)o1
RESULT: 0.00457

---

- condition-label: in isopropanol, 308.15 K
quantity-name: solubility (mole fraction)
# output: bare number, no unit

QUERY: // lookup solubility (mole fraction) for O=c1[nH]c2ccccc2c(=O)o1
RESULT: 0.00216

---

- condition-label: in acetone, 288.15 K
quantity-name: solubility (mole fraction)
Reply with just the number.

QUERY: Reported solubility (mole fraction), compound O=c1[nH]c2ccccc2c(=O)o1 : ____
RESULT: 0.00794

---

- condition-label: in methyl acetate, 308.15 K
quantity-name: solubility (mole fraction)
// no unit string in output, number only

QUERY: Which solubility (mole fraction) is reported for this compound? O=c1[nH]c2ccccc2c(=O)o1
RESULT: 0.00634

---

- condition-label: in isopropyl acetate, 303.15 K
quantity-name: solubility (mole fraction)
The response must contain the number and no unit.

QUERY: Item O=c1[nH]c2ccccc2c(=O)o1 has what recorded solubility (mole fraction)?
RESULT: 0.00256

---

- condition-label: in isopropanol, 293.15 K
quantity-name: solubility (mole fraction)
Hey, just send me the number, nothing else.

QUERY: Please report the recorded solubility (mole fraction) for O=c1[nH]c2ccccc2c(=O)o1 .
RESULT: 0.00121

---

- condition-label: in isopropyl acetate, 293.15 K
quantity-name: solubility (mole fraction)
// response body must contain only the number

QUERY: Item under review: O=c1[nH]c2ccccc2c(=O)o1 . Reported solubility (mole fraction)?
RESULT: 0.00206

---

- condition-label: in acetonitrile, 313.15 K
quantity-name: solubility (mole fraction)
Give the figure by itself; no unit, no explanation.

QUERY: Form field: reported solubility (mole fraction) of O=c1[nH]c2ccccc2c(=O)o1
RESULT: 0.00553

---

- condition-label: in methyl acetate, 288.15 K
quantity-name: solubility (mole fraction)
Reply with just the number.

QUERY: Tell me the measured solubility (mole fraction) of O=c1[nH]c2ccccc2c(=O)o1 , please.
RESULT: 0.00415

---

- condition-label: in n-propanol, 288.15 K
quantity-name: solubility (mole fraction)
In your answer, state the number alone without any accompanying words.

QUERY: Looking for the measured solubility (mole fraction) of O=c1[nH]c2ccccc2c(=O)o1 , can you help?
RESULT: 0.00116

---

- condition-label: in acetonitrile, 303.15 K
quantity-name: solubility (mole fraction)

QUERY: What does the data say about its solubility (mole fraction)? Entry: O=c1[nH]c2ccccc2c(=O)o1
RESULT: 0.0043

---

- condition-label: in n-propyl acetate, 328.15 K
quantity-name: solubility (mole fraction)

QUERY: Find the recorded solubility (mole fraction) belonging to O=c1[nH]c2ccccc2c(=O)o1 and report it.
RESULT: 0.00534

---

- condition-label: in ethyl acetate, 303.15 K
quantity-name: solubility (mole fraction)
Give the figure by itself; no unit, no explanation.

QUERY: Which solubility (mole fraction) reading was recorded for the compound O=c1[nH]c2ccccc2c(=O)o1 ?
RESULT: 0.00434

---

- condition-label: in n-propyl acetate, 298.15 K
quantity-name: solubility (mole fraction)
Give a plain numeric answer without units written out.

QUERY: GET /values?readout=solubility (mole fraction)&item= O=c1[nH]c2ccccc2c(=O)o1
RESULT: 0.00285

---

- condition-label: in ethyl acetate, 298.15 K
quantity-name: solubility (mole fraction)
Reply with the value as a number alone.

QUERY: Which solubility (mole fraction) value is on record for O=c1[nH]c2ccccc2c(=O)o1 ?
RESULT: 0.00389

---

- condition-label: in isopropanol, 313.15 K
quantity-name: solubility (mole fraction)
Just the number.

QUERY: Find the recorded solubility (mole fraction) belonging to O=c1[nH]c2ccccc2c(=O)o1 and report it.
RESULT: 0.00265

---

- condition-label: in methanol, 328.15 K
quantity-name: solubility (mole fraction)

QUERY: Value lookup for solubility (mole fraction); key = O=c1[nH]c2ccccc2c(=O)o1
RESULT: 0.00606

---

- condition-label: in methyl acetate, 328.15 K
quantity-name: solubility (mole fraction)
Reply with just the number.

QUERY: I'd like to know its solubility (mole fraction). The compound in question is O=c1[nH]c2ccccc2c(=O)o1
RESULT: 0.00937

---

- condition-label: in n-propyl acetate, 313.15 K
quantity-name: solubility (mole fraction)
Enter a number only.

QUERY: Can you share its solubility (mole fraction)? I mean this compound: O=c1[nH]c2ccccc2c(=O)o1
RESULT: 0.00394

---

- condition-label: in n-propyl acetate, 293.15 K
quantity-name: solubility (mole fraction)
Could you keep your reply to the number by itself?

QUERY: Looking for the measured solubility (mole fraction) of O=c1[nH]c2ccccc2c(=O)o1 , can you help?
RESULT: 0.00255

---

- condition-label: in methyl acetate, 313.15 K
quantity-name: solubility (mole fraction)

QUERY: For O=c1[nH]c2ccccc2c(=O)o1 , what is its reported solubility (mole fraction)?
RESULT: 0.00699

---

- condition-label: in acetonitrile, 288.15 K
quantity-name: solubility (mole fraction)
A bare number is all that is needed in reply.

QUERY: // solubility (mole fraction) lookup, key: O=c1[nH]c2ccccc2c(=O)o1
RESULT: 0.003
